Experiment: protein stability index of a GFP-peptide fusion (GPS, HEK-293T) (PSI 1-6); higher = more stable;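 note: 24-mer peptide tiles fused after GFP, lentivirally expressed, FACS-sorted into six equal bins by GFP/DsRed ratio, decoded by Illumina sequencing, PSI is the read-weighted mean bin number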
Details: treatment: DMSO; c terminus: a fixed tail appended
Is protein stability index at least 3? Then T. If not, F.

NEYFFDRNRPSFDAILYYYQSGGR [KCNA3] = F

Reported protein stability index at or above 3? VLALRNMKNLLFSEMWDIFLVRLL [MFSD9]
F

Again, but for SAGVGRTGVFITLSIVLERMRYEG [PTPRD]
F

Again, but for VLVNLVPAHKNLNKQAYDLAKALL [PDS5B]
T

Again, but for ARFQDKQYSSHHTAEKRKRLGELF [CHGB]
T

Again, but for RLMDVCATSRTDREIKVTLVFEHV [CDK4]
F

Again, but for LPSENLGKEPLDPDPSHSPSDKVG [TOR1AIP2]
T

Again, but for TLYRNRSNLETIFRIIDSDHSGFI [PPEF2]
F

Again, but for FVADEGICYLPHWMMQNLLLEEGG [UFD1]
F

Again, but for EEEERLRREEEERRRIEEERLRLE [ACBD3]
T

Again, but for QTVFQKKNLQQTTNTTSTQMTNIG [IQUB]
T

Again, but for SSISSTSNEQLKVTQEPRAKKGRR [ZMYND11]
T

Again, but for QVFRLAFRSGALDLDSCSRDGALL [MYORG]
F

Provenance of the data: the supplement of paper PMC10567573
